Test system: MYC mRNA in MV4:11 (AML) cells
assay-overview: cMyc RNA quantification assay (QuantiGene) in MV4:11 cells
Type: cell-based
protocol-conditions: Homo sapiens, 4 h, QuantiGene 2.0
pIC50: −log10 of the molar value.
endpoint: pIC50

Some solved cases for reference:
• Cc1nnc2n1-c1ccccc1N(c1ccc(Cl)cc1)C(C)C2 (centres unmarked) = 5.00 to 6.00
• Cc1nnc2n1-c1ccc(-c3ccc(=O)[nH]c3)cc1N(c1ccc(C#N)cc1)C[C@H]2C = 5.00 to 6.00
• Cc1nnc2n1-c1ccc(-c3cnn(C)n3)cc1N(c1ccc(S(C)(=O)=O)cc1)C[C@@H]2C = 5.00 to 6.00
• Cc1ccc(-c2ccc3c(c2)N(c2ccc(Cl)cc2)C[C@@H](C)c2nnc(C)n2-3)cn1 = > 7.00
• Cc1nnc2n1-c1ccc(-c3ccc(N)nc3)cc1N(c1ccc(Cl)cc1)C[C@H]2C = > 7.00

Per the records, this compound ( Cc1nnc2n1-c1ccc(-c3cnn(C)c3)cc1N(c1ccc(C#N)cc1)C[C@H]2C ) has pIC50 equal to > 7.00

The compound listed as Cc1nnc2n1-c1ccccc1N(c1ccc(Cl)cc1)CC2 shows pIC50 equal to 5.00 to 6.00

compound Cc1nnc2n1-c1ccc(-n3cncn3)cc1N(c1ccc(Cl)cc1)C[C@H]2C , pIC50 observed: > 7.00

Recorded result, Cc1nnc2n1-c1ccc(-c3cnn(CC(N)=O)c3)cc1N(c1ccc(C#N)cc1)C[C@H]2C , pIC50: 5.00 to 6.00

Reported pIC50 ( COc1ccc2c(n1)N(c1ccc(C#N)cc1)CC(C)c1nnc(C)n1-2 (centres unmarked) ) = 5.00 to 6.00

For this compound ( Cc1nnc2n1-c1ccccc1N(c1ccc(Cl)cc1)C(C)(C)C2 ), measured pIC50 is 6.00 to 7.00

Value of measured pIC50 for the entry Cc1nnc2n1-c1ccc(-c3ccc(=O)[nH]c3)cc1N(c1ccc(Cl)cn1)C[C@H]2C : 6.00 to 7.00

pIC50 reported for this compound Cc1nnc2n1-c1ccc(-c3cnc(N)nc3)cc1N(c1ccc(Cl)cc1)CC2C (centres unmarked) : > 7.00

Noted for Cc1nnc2n1-c1ccc(-c3ccc(N)nc3)cc1N(c1ccc(Cl)cc1)CC2 : its pIC50 reads 6.00 to 7.00

// recorded pIC50 for Cc1nnc2n1-c1ccc(-c3ccc(N)nc3)cc1N(c1ccc(C(N)=O)cc1)CC2C (stereo in doubt) [Compound 69] : 5.00 to 6.00

Value of pIC50 reported for the compound Cc1nnc2n1-c1ccc(-c3cnn(C)c3)cc1N(c1ccc(C#N)cn1)C[C@H]2C is 6.00 to 7.00

The reported pIC50 of the compound Cc1nnc2n1-c1ccc(-c3cn[nH]c3)cc1N(c1ccc(C#N)cc1)C[C@H]2C was > 7.00

Recorded values, source patent US9422292B2.
